Assay: AUC (infinity) in cynomolgus monkey at 3 mg/kg, po by LC-MS/MS analysis
Format: ADME, organism-based, Macaca fascicularis
Parameters: time infinity, dose 3 mg/kg, route oral
Details: plasma
experimental.readout: AUC(0-inf) (ng·h/mL)
Write down the numeric answer in ng·h/mL and omit the unit.

## Input Tell me the measured AUC(0-inf) of O=C(c1ccc(F)c(F)c1Nc1ccc(I)cc1F)N1CC(O)([C@@H]2CCCCN2)C1 , please.
## Output 640

====

Assay: Ratio of drug level in brain to plasma in mouse at 3 mg/kg after 2 hrs
Assay type: ADME, organism-based
Parameters: dose 3 mg/kg
Conditions: read-out: BPR
experimental.readout: Kp at 2 h
Please reply with the number alone, leaving off any unit.

## Input Tell me the measured Kp at 2 h of O=C(c1ccc(F)c(F)c1Nc1ccc(I)cc1F)N1CC(O)([C@@H]2CCCCN2)C1 [COBIMETINIB] , please.
## Output 0.5

====

Test system: Canis familiaris
Test: AUC (infinity) in Beagle dog at 3 mg/kg, iv by LC-MS/MS analysis
Format: ADME, organism-based, Canis lupus familiaris, Plasma
Design: dose 3 mg/kg, route intravenous, time infinity
Settings: in vivo
experimental.readout: AUC (ng·h/mL)
Write down the numeric answer in ng·h/mL and omit the unit.

## Input Tell me the measured AUC of O=C(c1ccc(F)c(F)c1Nc1ccc(I)cc1F)N1CC(O)([C@@H]2CCCCN2)C1 [COBIMETINIB] , please.
## Output 17100

====

Assay: Ratio of drug level in blood to plasma in human at 5 uM after 30 mins
Format: ADME
experimental.readout: blood plasma ratio at 0.5 h, 5 µM
Please reply with the number alone, leaving off any unit.

## Input Tell me the measured blood plasma ratio at 0.5 h, 5 µM of O=C(c1ccc(F)c(F)c1N[14c]1[14cH][14cH][14c](I)[14cH][14c]1F)N1CC(O)([C@@H]2CCCCN2)C1 , please.
## Output 0.945

====

Assay: Cmax in cynomolgus monkey at 3 mg/kg, po by LC-MS/MS analysis
Assay type: ADME, organism-based, Macaca fascicularis
Set-up: dose 3 mg/kg, route oral
Conditions: in vivo
experimental.readout: Cmax

## Input Tell me the measured Cmax of O=C(c1ccc(F)c(F)c1Nc1ccc(I)cc1F)N1CC(O)([C@@H]2CCCCN2)C1 , please.
## Output 0.05 µg/mL

====

Experiment: Plasma clearance in Sprague-Dawley rat at 3 mg/kg, iv by LC-MS/MS analysis
Format: ADME, organism-based
Set-up: dose 3 mg/kg, route intravenous
experimental.readout: clearance (mL/min/kg)
Write down the numeric answer in mL/min/kg and omit the unit.

## Input Tell me the measured clearance of O=C(c1ccc(F)c(F)c1Nc1ccc(I)cc1F)N1CC(O)([C@@H]2CCCCN2)C1 , please.
## Output 37.8

====

Assay: Ratio of drug level in blood to plasma in Sprague-Dawley rat at 10 uM after 30 mins
Assay type: ADME
experimental.readout: blood plasma ratio at 0.5 h, 10 µM

## Input Tell me the measured blood plasma ratio at 0.5 h, 10 µM of O=C(c1ccc(F)c(F)c1N[14c]1[14cH][14cH][14c](I)[14cH][14c]1F)N1CC(O)([C@@H]2CCCCN2)C1 , please.
## Output 1.51

====

Test: Percentage unbound in rat plasma at 1 uM after 5 hrs by equilibrium dialysis
Type: ADME, cell-free
experimental.readout: fraction unbound at 5 h, 1 µM
Please reply with the number alone, leaving off any unit.

## Input Tell me the measured fraction unbound at 5 h, 1 µM of O=C(c1ccc(F)c(F)c1N[14c]1[14cH][14cH][14c](I)[14cH][14c]1F)N1CC(O)([C@@H]2CCCCN2)C1 , please.
## Output 0.028
